From: PubChem BioAssay AID463074

Tested on: HMLE_sh_eGFP viability, CellTiter-Glo luminescence, 72 h
ASSAY COMMENT: cytotoxicity in HMLE control line with eGFP shRNA, dose response, counter-screen for HMLE_sh_ECad selective toxicity project, cell-based, HMLE_sh_eGFP, luminescence (AID 463074);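 note: counterscreen control line to flag general toxicity for the HMLE_sh_ECad screen; potency for loss of viability as luminescence drops below DMSO wells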
Active and inactive are the calls of the source.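 Rule for the calls: active = AC50 no more than tenfold above the top dose tested, or full inhibition at every dose with a flat fit (cut at about 19 µM in these data); inconclusive = flat curve fit with inhibition between 30% and 70%, or poor fit; inactive = AC50 more than tenfold above the top dose tested.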
Possible outcomes: active, inactive

MOLECULE	ASSIGNED CATEGORY
COCCN(C(=O)C(C)C)c1nnc(-c2ccc(C(C)(C)C)cc2)s1	active
COc1ccc(-c2nc(N)nc(C)c2Oc2ccccc2Br)c(O)c1	active
CCOC(=O)C(=NCCCN1CCOCC1)NNc1cccc(C(F)(F)F)c1	active
Cc1cn(-c2cc(C(=O)Nc3ccc(C)c(NC(=O)C(=O)c4c[nH]c5ccccc45)c3)cc(C(F)(F)F)c2)cn1	active
Cc1nc(-c2ccccc2)sc1C(=O)/C=C/c1ccc(Cl)cc1	active
CCCCCc1cc(=O)oc2c(C(CCN3CCCC(C)C3)c3ccc(N(C)C)cc3)c(OC)cc(OC)c12 (stereo unspecified)	active
CC(OC(=O)c1cccs1)C(=O)NC1CCCCC1C (stereo unspecified)	inactive
COc1cccc(/C=N/NC(=O)CSc2nnc(C)n2-c2ccccc2)c1O	active
CCCCCCCC/C=C\CCCCCCCC(=O)NCCc1ccc(O)c(O)c1	active
COc1ccc(-c2sc3ccccc3c2C#Cc2cncn2C)cc1	active
Cc1nn(Cc2ccc(C(=O)Nc3nccs3)cc2)c(C)c1Cl	active
C=C1[C@@H](O)[C@@H]2O[C@]3(CC[C@H](/C=C/[C@@H](C)[C@@H]4CC(C)=CC5(O[C@H](C[C@@](C)(O)C(=O)OC)CC[C@H]5O)O4)O3)CC[C@H]2O[C@@H]1[C@@H](O)C[C@H](C)[C@H]1OC2(CCCCO2)CC[C@H]1C (stereo partly specified)	active
Cc1nc2sccn2c(=O)c1CCN1CCC(=C(c2ccc(F)cc2)c2ccc(F)cc2)CC1	active
Cc1ccccc1CSc1ccc(-c2ccc3c(c2)OCO3)nn1	active
Cc1nc2ccccc2n1-c1nc(-c2ccco2)cc(C(F)(F)F)n1	active
CCCCCCSc1cccc(-c2nc3ccc(C)cn3c2NCc2ccccc2)c1	active
COc1cc(CNCCc2ccccc2)cc(Cl)c1OCc1ccccc1	active
CN(C)N1C(N)=C(C#N)C(c2cccc3ccccc23)C2=C1CC(c1ccccc1)CC2=O (stereo unspecified)	active
Cc1ccc(NS(=O)(=O)c2cc3c4c(cccc4c2)C(=O)NC3=O)cc1C	active
C/C(=N\NC(=O)c1cc(C)nc2ccccc12)c1ccccn1	active
CCOc1cc(/C=C2/SC(=S)N(Cc3ccccc3)C2=O)ccc1O	active
COc1ccc(N(C(=O)c2ccccc2C)S(=O)(=O)c2cccs2)cc1	active
CCN(c1ccccc1)S(=O)(=O)c1cccc(C(=O)NCC(c2cccs2)N2CCOCC2)c1 (stereo unspecified)	inactive
COc1cc2nc(Nc3ccc(C)c(Cl)c3)nc(N)c2cc1OC	active
C=CCn1c(=O)c(C(=O)NCCc2ccccc2)c(O)c2ccccc21	active
O=c1c2ccccc2nc(/C=C/c2ccccc2)n1-c1ccccc1O	active
CCOC(=O)c1c(NC(=O)/C=C/c2ccc3c(c2)OCO3)sc(C)c1CC	active
COc1ccc(C(=O)NC(=S)Nc2ccccc2N2CCCCC2)cc1[N+](=O)[O-]	active
COc1ccc(-c2nn(-c3ccccc3)cc2/C=C2/SC(=S)N(CCC(=O)O)C2=O)c(C)c1	active
CC(=O)NNc1cccc(Cl)n1	inactive
CCCCNc1nc(Nc2ccc(C)c(Cl)c2)c2cnn(C)c2n1	active
COc1cc(C(=O)N/N=C(\Cc2ncc[nH]2)c2ccccc2)cc(OC)c1OC	active
O=C(CN1CCCCCC1)Nc1ccccc1Oc1ccccc1	active
O=C(NC(CSCc1ccccc1)C(=O)N/N=C/c1ccc(O)cc1O)c1ccc([N+](=O)[O-])cc1 (stereo unspecified)	active
CCCc1ccc(C(=O)NNc2ccc(F)cc2)cc1	active
CCCCCc1cc(=O)oc2c(C(CCN3CCCC(C)C3)c3cc(OC)c(OC)c(OC)c3)c(OC)cc(OC)c12 (stereo unspecified)	active
O=[N+]([O-])/C=C/c1cn(Cc2ccc(Cl)cc2)c2ccccc12	active
FC(F)(F)c1cccc(Nc2ncnc3ccccc23)c1	active
COc1cc(/C=C/C(=O)c2ccc3c(c2)OCO3)cc(Cl)c1O	active
Cc1ccc(C)c(NC(=S)NC(NC(=O)Cc2cccc3ccccc23)C(Cl)(Cl)Cl)c1 (stereo unspecified)	active
Cc1nc2ccccc2n1/N=C/c1ccc([N+](=O)[O-])o1	active
